Data provenance is ChEMBL document CHEMBL1145878.

target.entity: Rhodesain (Trypanosoma brucei rhodesiense, UniProt Q95PM0)
Sequence (Q95PM0 whole entry): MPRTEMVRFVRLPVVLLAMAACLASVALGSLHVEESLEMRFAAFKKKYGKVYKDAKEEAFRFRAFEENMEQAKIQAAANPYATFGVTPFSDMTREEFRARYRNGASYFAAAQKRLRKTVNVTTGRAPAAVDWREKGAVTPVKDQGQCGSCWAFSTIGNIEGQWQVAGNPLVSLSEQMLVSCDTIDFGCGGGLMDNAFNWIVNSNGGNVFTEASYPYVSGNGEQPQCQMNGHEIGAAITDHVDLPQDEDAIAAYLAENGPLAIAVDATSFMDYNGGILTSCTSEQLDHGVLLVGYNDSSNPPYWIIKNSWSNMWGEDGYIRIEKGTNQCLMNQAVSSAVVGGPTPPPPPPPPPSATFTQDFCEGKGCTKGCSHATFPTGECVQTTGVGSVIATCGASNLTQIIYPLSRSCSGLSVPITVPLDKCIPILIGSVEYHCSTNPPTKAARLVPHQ
Response field class: enum, chosen by comparing IC50 against bin 1 = under 6 µM, bin 2 = from 6 µM up to 20 µM, bin 3 = 20 µM and over

Kindly identify the class of NC(=S)/N=N/c1c(O)[nH]c2ccc(I)cc12 .
bin 1

Kindly identify the class of Cc1cc(C)c2[nH]c(O)c(/N=N/C(=N)S)c2c1 .
bin 2

Kindly identify the class of NC(=S)/N=N/c1c(O)[nH]c2ccccc12 .
bin 1

Kindly identify the class of O=C1C(=O)N(S(=O)(=O)c2ccccc2)c2ccccc21 .
bin 2

Kindly identify the class of O=C1C(=O)N(C(=O)c2ccccc2)c2ccccc21 .
bin 3

Kindly identify the class of NC(=S)/N=N/c1c(O)[nH]c2ccc(F)cc12 .
bin 2

Kindly identify the class of NC(=S)/N=N/c1c(O)[nH]c2ccc([N+](=O)[O-])cc12 .
bin 2

Kindly identify the class of NC(=S)/N=N/c1c(O)[nH]c2ccc(Br)cc12 .
bin 2

Kindly identify the class of Cc1ccc2[nH]c(O)c(/N=N/C(=N)S)c2c1 .
bin 2

Kindly identify the class of O=C1C(=O)N(C(=O)OCc2ccccc2)c2ccccc21 .
bin 3

Kindly identify the class of Cc1cc(Cl)cc2c(/N=N/C(=N)S)c(O)[nH]c12 .
bin 1

* * *

target.entity: UniProt P25779
protocol.notes: Inhibitory activity against the Trypanosoma cruzi cysteine protease cruzain
reported.metric: log10 of IC50 (log10 of the value in µM)
// units: µM (pre-log); metric: IC50; scale: log10

Input NC(=S)/N=N/c1c(O)[nH]c2ccc(F)cc12 . Output log10 of IC50: 1.48

Input Cc1ccc2c(c1)C(=O)C(=O)N2Cc1ccccc1-c1ccccc1 . Output log10 of IC50: 0.45

Input NC(=S)/N=N/c1c(O)[nH]c2ccc(Br)cc12 . Output log10 of IC50: 1.30

Input Cc1cc(C)c2[nH]c(O)c(/N=N/C(=N)S)c2c1 . Output log10 of IC50: 1.20

Input O=C1C(=O)N(Cc2ccccc2)c2ccc(Cl)cc21 . Output log10 of IC50: 1.95

* * *

For each of the compounds below, state its pIC50.
target.entity: Cruzipain (Trypanosoma cruzi, UniProt P25779)
Sequence (P25779 whole entry): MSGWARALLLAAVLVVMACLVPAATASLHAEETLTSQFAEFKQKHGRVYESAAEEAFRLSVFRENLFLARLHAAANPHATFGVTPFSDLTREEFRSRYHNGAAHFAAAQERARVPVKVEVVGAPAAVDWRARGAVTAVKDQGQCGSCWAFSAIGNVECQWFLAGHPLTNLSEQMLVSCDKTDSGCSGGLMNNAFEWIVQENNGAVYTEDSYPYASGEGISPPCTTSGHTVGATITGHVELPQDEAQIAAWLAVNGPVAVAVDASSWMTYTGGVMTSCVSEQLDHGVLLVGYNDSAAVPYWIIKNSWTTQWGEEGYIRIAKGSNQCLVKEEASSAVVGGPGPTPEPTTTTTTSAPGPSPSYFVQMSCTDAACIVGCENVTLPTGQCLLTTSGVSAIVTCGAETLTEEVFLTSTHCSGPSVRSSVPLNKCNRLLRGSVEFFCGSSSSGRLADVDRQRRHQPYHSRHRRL
protocol.notes: Inhibitory activity against the Trypanosoma cruzi cysteine protease cruzain
For clarity, pIC50 is expressed as the negative log10 of concentration in mol/L.

Input O=C1C(=O)N(Cc2ccccc2)c2ccc(I)cc21 . Output pIC50: 4.05

Input O=C1C(=O)N(C(=O)OCc2ccccc2)c2ccc(Cl)cc21 . Output pIC50: 4.10

Input Cc1ccc(C)c(CN2C(=O)C(=O)c3cc(C)ccc32)c1 . Output pIC50: 4.10

Input NC(=S)/N=N/c1c(O)[nH]c2ccccc12 . Output pIC50: 5.10

Input NC(=S)/N=N/c1c(O)[nH]c2ccc([N+](=O)[O-])cc12 . Output pIC50: 4.52

Input Cc1cc(Cl)cc2c(/N=N/C(=N)S)c(O)[nH]c12 . Output pIC50: 4.98

* * *

For each of the compounds below, state its pIC50.
target.entity: Falcipain 2 (Plasmodium falciparum)
Sequence (Q9N6S8 whole entry): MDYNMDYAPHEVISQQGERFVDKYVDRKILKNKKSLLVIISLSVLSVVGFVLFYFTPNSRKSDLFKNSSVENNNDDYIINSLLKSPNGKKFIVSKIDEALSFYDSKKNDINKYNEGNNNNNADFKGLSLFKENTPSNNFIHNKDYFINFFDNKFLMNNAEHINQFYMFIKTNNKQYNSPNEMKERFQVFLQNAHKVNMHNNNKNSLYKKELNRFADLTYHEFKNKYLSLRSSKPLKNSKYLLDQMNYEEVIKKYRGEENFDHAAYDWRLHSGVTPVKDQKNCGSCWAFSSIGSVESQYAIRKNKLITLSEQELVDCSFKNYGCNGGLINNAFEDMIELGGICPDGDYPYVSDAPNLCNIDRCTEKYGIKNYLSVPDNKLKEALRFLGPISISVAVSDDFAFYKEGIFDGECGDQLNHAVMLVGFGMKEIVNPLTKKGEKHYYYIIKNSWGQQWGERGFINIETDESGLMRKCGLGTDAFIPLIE
protocol.notes: Inhibitory activity against Falcipain-2
For clarity, pIC50 is expressed as the negative log10 of concentration in mol/L.

Input NC(=S)/N=N/c1c(O)[nH]c2ccc([N+](=O)[O-])cc12 . Output pIC50: 5.36

Input Cc1ccc2[nH]c(O)c(/N=N/C(=N)S)c2c1 . Output pIC50: 4.36

Input NC(=S)/N=N/c1c(O)[nH]c2ccc(F)cc12 . Output pIC50: 4.41

Input O=C1C(=O)N(Cc2ccc(Cl)cc2)c2ccc(Cl)cc21 . Output pIC50: 4.51

Input Cc1cc(Cl)cc2c(/N=N/C(=N)S)c(O)[nH]c12 . Output pIC50: 5.03

Input NC(=S)/N=N/c1c(O)[nH]c2ccc(Br)cc12 . Output pIC50: 4.53

Input NC(=S)/N=N/c1c(O)[nH]c2ccc(I)cc12 . Output pIC50: 4.54

Input NC(=S)/N=N/c1c(O)[nH]c2ccccc12 . Output pIC50: 4.41

Input Cc1ccc2c(c1)C(=O)C(=O)N2Cc1ccccc1-c1ccccc1 . Output pIC50: 5.04

Input Cc1cc(C)c2[nH]c(O)c(/N=N/C(=N)S)c2c1 . Output pIC50: 4.88

Input COc1cccc(CN2C(=O)C(=O)c3cc(C)ccc32)c1 . Output pIC50: 4.66

Input NC(=S)/N=N/c1c(O)[nH]c2ccc(Cl)cc12 . Output pIC50: 4.48

Input COc1cccc(CN2C(=O)C(=O)c3cc(Cl)ccc32)c1 . Output pIC50: 4.46

Input O=C1Nc2ccc([N+](=O)[O-])cc2C1=O [5-NITROISATIN] . Output pIC50: 4.37

Input O=C1C(=O)N(Cc2ccccc2)c2ccc(Cl)cc21 . Output pIC50: 4.33
